Values were extracted from patent US11691961B2.

What Bemisia tabaci Mean LC50 PPM was measured for each of the following?
Test system: Sweet potato Whitefly (Bemisia tabaci, BEMITA)
testMethodNotes: Bioassay 2: Sweet potato Whitefly foliar spray on cotton seedlings
Format: in vivo
conditionDetails: cotton seedlings sprayed at crawler emergence; 2-3 instar nymphs counted 7-9 days after treatment; Abbott-corrected percent control; mean of replicates
Please format your answer as a value with the unit trailing.

// returns Bemisia tabaci Mean LC50 PPM for CC(C)(C(=O)Nc1cn(-c2cccnc2)nc1Cl)S(C)(=O)=O with Sweet potato Whitefly (Bemisia tabaci, BEMITA); value = 9.72 PPM

// returns Bemisia tabaci Mean LC50 PPM for CS(=O)(=O)CC(=O)Nc1cn(-c2cccnc2)nc1Cl with Sweet potato Whitefly (Bemisia tabaci, BEMITA); value = 25.35 PPM

// returns Bemisia tabaci Mean LC50 PPM for CN(C(=O)CS(C)(=O)=O)c1cn(-c2cccnc2)nc1Cl with Sweet potato Whitefly (Bemisia tabaci, BEMITA); value = 21.01 PPM

// returns Bemisia tabaci Mean LC50 PPM for CC(C(=O)N(C)c1cn(-c2cccnc2)nc1Cl)S(C)(=O)=O (centres unmarked) with Sweet potato Whitefly (Bemisia tabaci, BEMITA); value = 5.61 PPM

// returns Bemisia tabaci Mean LC50 PPM for CC(C(=O)Nc1cn(-c2cccnc2)nc1Cl)S(C)(=O)=O (centres unmarked) with Sweet potato Whitefly (Bemisia tabaci, BEMITA); value = 4.87 PPM
